# System: Human rhinovirus sp.
# Assay Details: Antiviral activity against rhinoviral 4 serotype in a plaque inhibition assay using monolayers of M-HeLa cells
# Assay type: functional, organism-based
Outcome Measure: IC50 (µM)

Sample answers from the record:
Give the reported value of IC50 for this record: `CN(C)c1nc(C(F)(F)F)nc2c1ncn2Cc1ccc([N+](=O)[O-])cc1`
4.1

Give the reported value of IC50 for this record: `CN(C)c1nc(C(F)(F)F)nc2c1ncn2Cc1ccc(S(C)(=O)=O)cc1`
8.8

Give the reported value of IC50 for this record: `CN(C)c1nc(C(F)(F)F)nc2c1ncn2Cc1ccc(Cl)cc1`
6.1

P = CN(C)c1nc(C(F)(F)F)nc2c1ncn2Cc1ccccc1Cl
Q = CN(C)c1nc(C(F)(F)F)nc2c1ncn2Cc1ccc(C(F)(F)F)cc1
Sort P and Q by IC50 descending and give the first. State the label of the item chosen.
P
(P: 10 µM, Q: 6 µM)

The reported measurements were obtained from ChEMBL document CHEMBL1124634.
